Source listed as a collection of fitness landscapes (doi:10.1016/j.celrep.2020.107928).

B1: Caulobacter ParB omega fusion; a variant is named by its letters at X, in order, B8GW30 (parent)
chain: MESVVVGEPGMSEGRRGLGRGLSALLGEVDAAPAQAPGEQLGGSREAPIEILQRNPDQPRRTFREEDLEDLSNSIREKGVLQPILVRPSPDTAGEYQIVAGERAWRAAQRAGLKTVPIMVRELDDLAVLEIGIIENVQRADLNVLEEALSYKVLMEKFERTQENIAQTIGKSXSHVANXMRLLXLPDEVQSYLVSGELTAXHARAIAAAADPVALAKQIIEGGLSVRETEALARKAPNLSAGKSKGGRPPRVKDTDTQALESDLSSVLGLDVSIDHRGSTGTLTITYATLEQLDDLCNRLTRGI

- Variants of: B1
- experiment.summary: one-hybrid fitness for binding parS DNA (scaled: cognate 1, non-cognate 0); higher = stronger binding
- condition.set: with parS DNA site
The full ranking holds about 81,000 sequences; the median of “one-hybrid fitness for binding parS DNA” is about -0.17, and the highest 2% start at about 0.51. For the sample, the highest values were picked, then their nearest neighbours and some sequences at random.
measured.attribute: one-hybrid fitness for binding parS DNA

RCWA 0.68
RTWP 0.271
LWSC ≤ 0.2
RLTQ ≤ 0.2
RFWC 0.697
RQPD ≤ 0.2
RQCT 0.846
RITG 0.997
RRTG 0.699
VMFV ≤ 0.2
RQLT 0.86
AVLG ≤ 0.2
RETG 0.249
RTPH ≤ 0.2
RTPS 0.822
RDIG ≤ 0.2
RPTG ≤ 0.2
RTYS 1
RSIG 0.822
RTSS 0.938
TELP ≤ 0.2
RQWF ≤ 0.2
RTSN 0.422
RQWT 0.702
SLYD ≤ 0.2
DFLC ≤ 0.2
GPSG ≤ 0.2
RFWF ≤ 0.2
TVTV ≤ 0.2
RTSD ≤ 0.2
PSQM ≤ 0.2
TYKP ≤ 0.2
RQIG 0.805
DFQC ≤ 0.2
RTYD ≤ 0.2
RLTD ≤ 0.2
RRTK ≤ 0.2
RQIH ≤ 0.2
RRTM 0.351
RFRC 0.969
RITP ≤ 0.2
MAPR ≤ 0.2
RITD ≤ 0.2
RPIG ≤ 0.2
ASNP ≤ 0.2
RQWR ≤ 0.2
